Measured EC10 accompanies every entry in the list below.
# Test system: HepG2 cells
# Procedure details: Drug/cytokine-induced cytotoxicity (% LDH release) concentration-response in HepG2 cells
# Format: cell-based, human
# Experimental context: value corresponding to 10% of Delta (max-min); drug alone (VEH); NA = no significant increase

Below, 2 compounds whose answers are already recorded.
[[record]]
compound = "COc1cccc2c1C(=O)c1c(O)c3c(c(O)c1C2=O)C[C@@](O)(C(=O)CO)C[C@@H]3O[C@H]1C[C@H](N)[C@H](O)[C@H](C)O1"
target_under_test = "HepG2 cells"
value_kind = "EC10"
observed = "12.0 [drug]/Cmax"

[[record]]
compound = "CC(C)Cc1ccc(C(C)C(=O)O)cc1 (stereo not drawn)"
target_under_test = "HepG2 cells"
value_kind = "EC10"
observed = "50.9 [drug]/Cmax"


**Q:** Quick one: EC10 for CCc1ccc(CCOc2ccc(CC3SC(=O)NC3=O)cc2)nc1 (stereo not drawn) ?
**A:** 71.4 [drug]/Cmax

* * *

# Test system: HepG2 cells
# Procedure details: Drug/cytokine-induced cytotoxicity (% LDH release) concentration-response in HepG2 cells
# Format: cell-based, human
# Experimental context: value corresponding to 10% of Delta; with IFN 10 ng/ml; NA = no significant increase
Value kind: EC10 IFN

**Q:** Could you share which EC10 IFN value was measured for `CC[C@H]1OC(=O)[C@H](C)C(=O)[C@H](C)[C@@H](O[C@@H]2O[C@H](C)C[C@H](N(C)C)[C@H]2O)[C@](C)(OC)C[C@@H](C)C(=O)[C@H](C)[C@H]2N(CCCCn3cnc(-c4cccnc4)c3)C(=O)O[C@]12C` ?
**A:** 80.7 [drug]/Cmax

**Q:** Now the compound CC(C)Cc1ccc(C(C)C(=O)O)cc1 (stereo not shown)
**A:** 50.7 [drug]/Cmax

* * *

# Tested on: HepG2 cells
# Procedure details: Drug/cytokine-induced cytotoxicity (% LDH release) concentration-response in HepG2 cells
# Assay type: cell-based, human
# Experimental context: Homo sapiens, HepG2; maximal LDH response; drug alone (VEH), 24 h; read-out: max
Lab note: cut-off is 20%. Strictly less in Emax is 1 (yes). Exactly 20% or more is 0 (no).

[[record]]
compound = "CCCC(CCC)C(=O)O [Valproic Acid]"
target_under_test = "HepG2 cells"
class = "0 (no)"

[[record]]
compound = "CC(=O)Oc1ccccc1C(=O)O [Aspirin]"
target_under_test = "HepG2 cells"
class = "1 (yes)"

[[record]]
compound = "CN[C@H]1CC[C@@H](c2ccc(Cl)c(Cl)c2)c2ccccc21 [Sertraline]"
target_under_test = "HepG2 cells"
class = "1 (yes)"

[[record]]
compound = "O=C(O)[C@H]1/C(=C/CO)O[C@@H]2CC(=O)N21 [Clavulanate]"
target_under_test = "HepG2 cells"
class = "1 (yes)"

[[record]]
compound = "CCc1ccc(CCOc2ccc(CC3SC(=O)NC3=O)cc2)nc1 (centres unmarked) [Pioglitazone]"
target_under_test = "HepG2 cells"
class = "0 (no)"


**Q:** Decide: Emax of COc1cccc2c1C(=O)c1c(O)c3c(c(O)c1C2=O)C[C@@](O)(C(=O)CO)C[C@@H]3O[C@H]1C[C@H](N)[C@H](O)[C@H](C)O1 [Doxorubicin] strictly below 20%?
**A:** 0 (no)

**Q:** For N[C@@H]1[C@H]2CN(c3nc4c(cc3F)c(=O)c(C(=O)O)cn4-c3ccc(F)cc3F)C[C@@H]12 [Trovafloxacin] then?
**A:** 1 (yes)

**Q:** What do we get for CC(C)Cc1ccc(C(C)C(=O)O)cc1 (centres unmarked) [Ibuprofen] ?
**A:** 0 (no)

**Q:** What would you report for NNC(=O)c1ccncc1 [Isoniazid] ?
**A:** 0 (no)

**Q:** Further, for CS(=O)(=O)Nc1ccc([N+](=O)[O-])cc1Oc1ccccc1 [Nimesulide] ?
**A:** 1 (yes)

**Q:** What would you report for CC(=O)[C@]1(O)Cc2c(O)c3c(c(O)c2[C@@H](O[C@H]2C[C@H](N)[C@H](O)[C@H](C)O2)C1)C(=O)c1ccccc1C3=O [Idarubicin] ?
**A:** 1 (yes)

**Q:** Then this compound: Cc1onc(-c2c(F)cccc2Cl)c1C(=O)N[C@@H]1C(=O)N2[C@@H]1SC(C)(C)[C@@H]2C(=O)O [Flucloxacillin]
**A:** 1 (yes)

**Q:** Please answer likewise for COc1ccc2cc([C@H](C)C(=O)O)ccc2c1 [Naproxen]
**A:** 0 (no)

**Q:** What would you report for O=C(O)Cc1ccccc1Nc1c(Cl)cccc1Cl [Diclofenac] ?
**A:** 1 (yes)

**Q:** # repeat for COc1c(N2C[C@@H]3CCCN[C@@H]3C2)c(F)cc2c(=O)c(C(=O)O)cn(C3CC3)c12 [Moxifloxacin]
**A:** 1 (yes)

**Q:** What do you get for CC[C@H]1OC(=O)[C@H](C)C(=O)[C@H](C)[C@@H](O[C@@H]2O[C@H](C)C[C@H](N(C)C)[C@H]2O)[C@](C)(OC)C[C@@H](C)C(=O)[C@H](C)[C@H]2N(CCCCn3cnc(-c4cccnc4)c3)C(=O)O[C@]12C [Telithromycin] ?
**A:** 0 (no)

**Q:** Here is the next compound: CN(C)CCCN1c2ccccc2Sc2ccc(Cl)cc21 [Chlorpromazine]
**A:** 0 (no)
